target system: T1, catalytic domain of MMP-14 (cdMMP-14) (human, UniProt P50281 114-287, limits assumed, biotinylated (Sulfo-NHS-LC-Biotin) where immobilised via streptavidin)
T1 construct: also called matrix metalloproteinase-14 catalytic domain; wild-type MMP-14
method notes: ELISA, Fab titrated on immobilised MMP-14 catalytic domain, anti-Fab-HRP
Attribute: pEC50
// pEC50 is dimensionless: -log10 of concentration (M)

Consider the worked cases shown below.
{"columns": ["binder", "pEC50"],
 "data": [
  ["Fab 33D2 (Fab, V domains shown, not shown: His tag at the C-terminus of the heavy chain) VH: EVQLVESGGGLVQPGGSLRLSCAASGFNLYYSSIHWVRQAPGKGLEWVAYISSYSGYTSYADSVKGRFTISADTSKNTAYLQMNSLRAEDTAVYYCARSKYGPASRQLASRTSWSGPRGKYGMDYWGQGTLVTVSS VL: DIQMTQSPSSLSASVGDRVTITCRASQSVSSAVAWYQQKPGKAPKLLIYSASSLYSGVPSRFSGSRSGTDFTLTISSLQPEDFATYYCQQAYGSYLITFGQGTKVEIKR", 6.92],
  ["Fab 3B2 (Fab, V domains shown, also called R2C1; not shown: His tag at the C-terminus of the heavy chain) VH: EVQLVESGGGLVQPGGSLRLSCAASGFNFSSSSIHWVRQAPGKGLEWVASIYSSYSSTYYADSVKGRFTISADTSKNTAYLQMNSLRAEDTAVYYCARSTAATTLSRMSRSYWTIQLPYGMDYWGQGTLVTVSS VL: DIQMTQSPSSLSASVGDRVTITCRASQSVSSAVAWYQQKPGKAPKLLIYSASSLYSGVPSRFSGSRSGTDFTLTISSLQPEDFATYYCQQSSYSLITFGQGTKVEIKR", 6.23]
]}

Here's the next entry for you.
Ask: Need pEC50 of Fab 3G9 (Fab, V domains shown, not shown: His tag at the C-terminus of the heavy chain) VH: EVQLVESGGGLVQPGGSLRLSCAASGFNIYYSSIHWVRQAPGKGLEWVASIYSYSGYTYYADSVKGRFTISADTSKNTAYLQMNSLRAEDTAVYYCARATNEKFRRKSLQVRLLMRSWLAYAMDYWGQGTLVTVSS VL: DIQMTQSPSSLSASVGDRVTITCRASQSVSSAVAWYQQKPGKAPKLLIYSASSLYSGVPSRFSGSRSGTDFTLTISSLQPEDFATYYCQQASYAASALITFGQGTKVEIKR , thanks.
Reply: 6.80
